# Tested on: HT-29
# assayName: NCI tumour cell line growth inhibition, 48 h
Active and inactive are the calls of the source. Rule as the data show it: active = GI50 up to about 1.1 µM and inactive = higher.
Each entry below lists one item and its recorded GI50 value.
propertyMeasured: GI50

compound | measurement
C=C1C(=O)OC2C1C(OC(=O)/C(C)=C\C)CC1(CO1)C1C(O)C=C(C)C21O (centres undefined) | 13 µM (inactive)
COc1cccc2c1C(=O)c1c(O)c3c(c(O)c1C2=O)C[C@@](O)(/C(C)=N/NC(=O)c1ccccc1)C[C@@H]3OC1CC(N)C(O)C(C)O1 (some centres undefined) | 0.589 µM (active)
O=[N+]([O-])c1ccc(N/N=C2\C=CCCC2)c([N+](=O)[O-])c1 | > 100 µM (inactive)
N#C/C(=N/Nc1[nH]cnc1C(N)=O)C(=O)Nc1ccccc1 | 48.6 µM (inactive)
COC(=O)c1ccc2c(c1)CCN2C(=O)c1cc2c(cc1Br)OCO2 | 0.373 µM (active)
C=CCNC(=O)N1CC(C)C(=O)Nc2ccccc21 (centres undefined) | > 100 µM (inactive)
O=C(CN1CCOCC1)c1ccc2[nH]c(=O)oc2c1 | > 100 µM (inactive)
COc1ccc2[nH]c3ccc4cc[n+](CCN5CCC(C6CCN(CC[n+]7ccc8ccc9[nH]c%10ccc(OC)cc%10c9c8c7)CC6)CC5)cc4c3c2c1 | 0.333 µM (active)
COC(=O)[C@@H]1Cc2c([nH]c3ccccc23)[C@H](c2ccccc2)N1 | 49.3 µM (inactive)

* * *

Each entry below lists one item and its recorded GI50 value.
# Tested on: HT-29
# assayName: NCI tumour cell line growth inhibition, 48 h
Activity calls are given as the source filed them. Rule as the data show it: active = GI50 up to about 1.1 µM and inactive = higher.

compound | GI50
O=NN(CCCl)C(=O)NC1CCSc2ccccc21 (stereo unspecified) | > 100 µM (inactive)
Cc1nn(-c2ccccc2)c(C)c1/C=N/N=C1\SCC(=O)N1c1ccccc1 | 20.5 µM (inactive)
Cc1sc(Nc2ccc(Nc3nc(-c4ccccc4)c(C)s3)cc2)nc1-c1ccccc1 | 60 µM (inactive)
O=C(O)c1ccc(OCc2ccccc2)c(Cl)c1 | > 100 µM (inactive)
C#Cc1c(C)c(/C=C/C(C)=C\C(=O)OC)n(C)c1C | 28.6 µM (inactive)
N=C(Cc1ccccc1)NCC(=O)O | > 100 µM (inactive)

* * *

# Tested on: CAKI-1
# assayName: NCI tumour cell line growth inhibition, 48 h
Activity calls are given as the source filed them. Rule as the data show it: active = GI50 up to about 1.1 µM and inactive = higher.

molecule | GI50
Cc1cc(Br)cc(C)c1NC(=O)C(=O)C(C(=O)c1ccc2ccccc2c1)C1OC(=O)c2ccccc21 (stereo not given) | 15.7 µM (inactive)
CC(C)c1ccccc1NC(=O)C(=O)Cc1nc2ccccc2s1 | > 100 µM (inactive)
COC(=O)c1cc(C)n(CN(Cn2nc(C(=O)OC)cc2C)c2ccccc2)n1 | 37.8 µM (inactive)
O=C1OC(=O)c2c1c(-c1ccccc1)nc1ccccc21 | > 100 µM (inactive)
COc1ccc(/C=C2\C(=O)N(C(=O)Cc3ccccc3)N=C2C)cc1OC | > 100 µM (inactive)

* * *

# Test system: SK-MEL-2
# assayName: NCI tumour cell line growth inhibition, 48 h
Active and inactive are the calls of the source. No stated cut-off is given here; in the data, active = GI50 up to about 1.1 µM and inactive = higher.
Each entry below lists one item and its recorded GI50 value.
propertyMeasured: GI50

compound | propertyMeasured | measurement
CSc1ccc(/C=C2\N=C(c3ccccc3)N(/N=C/c3cc4cc(C)ccc4nc3Cl)C2=O)cc1 | GI50 | 16.8 µM (inactive)
O=C(NCC1Nc2ccncc2S(=O)(=O)N1)c1ccc(Br)cc1 (stereo not given) | GI50 | 14.9 µM (inactive)
Cc1cc(S(=O)(=O)N/C(=N/N)NCCc2ccccc2)c(S)cc1Cl | GI50 | 38.2 µM (inactive)
CCN(CC)c1ccc2c(c1)Oc1ccc(N(C(C)=O)c3ccccc3)cc1C21OC(=O)c2ccccc21 (stereo not given) | GI50 | > 100 µM (inactive)
COC(=O)C(=Cc1cc(OC)c(OC)c(OC)c1-c1cc2c(cc1C1(C)OCCS1)OCO2)C(=O)OC (stereo not given) | GI50 | 21.1 µM (inactive)

* * *

# Tested on: HOP-62
# assayName: NCI tumour cell line growth inhibition, 48 h
The source made the active and inactive calls. Cut-off read from the data, not from the text of the source: active = GI50 up to about 1.1 µM and inactive = higher.
Labels: label 1 (active), label 0 (inactive)

compound | qualitativeLabel
Nc1nc(Nc2ccc(Cl)cc2)sc1C(=O)c1c[nH]c2ccccc12 | label 0
CCCCCCCCCCC(C(=O)O)C1(C(=O)O)CCC(=O)O1 (stereo not given) | label 0
O=C(NNC(=O)c1c(Cl)c(Cl)c(Cl)c(Cl)c1-c1nc2ccccc2[nH]1)c1ccc(Cl)cc1 | label 0
CCCC(=O)Nc1cc(/C=C/C(=O)N2CC(CCl)c3c2cc(OCc2ccccc2)c2[nH]cc(C)c32)n(C)c1 (stereo not given) | label 1
CS(=O)(=O)OCC1=C(COS(C)(=O)=O)C(=O)c2c(O)ccc(O)c2C1=O | label 0
c1ccc2sc(C3(N4CCCC4)CCCCCC3)cc2c1 | label 0
COC1=CC(=O)c2ccccc2C1(C)C1=NC(C)(C)CO1 (stereo not given) | label 0
O=C(/C=C/c1cccs1)c1ccc([N+](=O)[O-])cc1 | label 0
O=C1CC(c2c[nH]c3ccccc23)C(=O)N1c1ccccc1 (stereo not given) | label 0
CC1(C)CC(=O)C2=C(C1)N(c1ccccc1)C1(O)C=CC(O)=C3C(=O)c4ccccc4C(=O)C321 (stereo not given) | label 0

* * *

# Test system: HOP-92
# assayName: NCI tumour cell line growth inhibition, 48 h
Calls of active or inactive are those of the source. No stated cut-off is given here; in the data, active = GI50 up to about 1.1 µM and inactive = higher.
Labels: active, inactive

compound | qualitativeLabel
Nc1nc(Cl)cc(NCCCCCCCCCCCCNc2cc(Cl)nc(N)n2)n1 | inactive
COc1cccc(C2CC23C(=O)NC(=O)NC3=O)c1 (stereo unspecified) | inactive
C=CCC1(O)c2ccccc2C(=O)c2c(O)ccc(O)c21 (stereo unspecified) | inactive
O=C(c1nc2ccccc2nc1O)C(O)c1ccco1 (stereo unspecified) | inactive
CC(C)NC(=O)OCc1c(COC(=O)NC(C)C)c(-c2cc[n+](COC(=O)Cc3ccccc3)cc2)n2c1CCC2 | inactive
CC(=O)n1nc(-c2ccccc2)n(/N=C/c2ccc([N+](=O)[O-])o2)c1=O | inactive
Cc1cc(Cl)ccc1NC(=O)C(=O)C(C(=O)c1ccccc1)C1OC(=O)c2ccccc21 (stereo unspecified) | inactive
COC1=CC(=O)c2c(O)c3c(c(O)c2C1=O)OC1(Oc2c(cc4cc(C)oc(=O)c4c2O)CC1O)C3O (stereo unspecified) | inactive
Cn1cc(C(=O)c2ccccc2)cc(C(=O)c2ccccc2)c1=O | inactive
CN(NC(=O)/C(=C/c1ccc(O)cc1)NC(=O)c1ccccc1)c1ccnc2cc(Cl)ccc12 | inactive
CCNC12CCC(C1)C(C)(C)C2=O (stereo unspecified) | inactive
CCCCCC1CC(C(C)=O)CN1c1ccc(F)cc1 (stereo unspecified) | inactive
CC1(C)CC(=O)C2=C(C1)N(c1ccccc1)C1(O)C=CC(O)=C3C(=O)c4ccccc4C(=O)C321 (stereo unspecified) | inactive
CC(C)=CCC/C(C)=C/CC/C(C)=C/C1CCC(=O)C1(C)C (stereo unspecified) | inactive
COc1ccc2c(c1)OCC1Cc3ccccc3OC21 (stereo unspecified) | inactive
CC(=O)/C(=N\O)C(=O)NCCc1ccccc1 | inactive
CN(C)S(=O)(=O)c1ccc2c(c1)/C(=C1/Nc3ccccc3C1=O)C(=O)N2 | inactive
CCOC(=O)C(Cc1cc(OC)c(CC(C(=O)OCC)C(=O)OCC)cc1OC)C(=O)OCC | inactive
Cc1csc2nc(-c3ccc([N+](=O)[O-])cc3)c(/C=N/N=C(N)N)n12 | active
CCN(CC)C1=Nc2ccccc2-n2ccnc2C1 | inactive
N#C/C(C(=O)Nc1ccccc1)=C(/N)N1CCCCC1 | inactive
CC1(C)CCc2cc3c(cc2O1)OC(C)(C)CC3=O | inactive
CC(C)(CN1C(=O)C(Cl)=C(Cl)C1=O)CN1C(=O)C(Cl)=C(Cl)C1=O | inactive
O=C(CCC(=O)Nc1ccccc1C(F)(F)F)N/N=C1\C(=N\NC(=O)CCC(=O)Nc2ccccc2C(F)(F)F)C(c2ccc3c(c2)OCO3)Oc2ccccc21 (stereo unspecified) | inactive
CC(O)CNC1=CC(=O)C(=O)c2ccccc21 (stereo unspecified) | inactive
Cc1nc2c(c(N3CCN(C)CC3)n1)Cc1ccccc1-2 | inactive
OCc1ccc2c(c1)CC1(C2)Cc2cc3c(cc2C1O)CCC3 (stereo unspecified) | inactive
C=C1CC(c2ccc(OCCCN3C(=O)c4ccccc4C3=O)cc2)OC1=O (stereo unspecified) | inactive
O=C(O)c1nc2ccc(C(F)(F)F)cc2[nH]c1=O | inactive
Nc1nc(N)c2c(Cl)c(CNc3ccc(Cl)c(Cl)c3)ccc2n1 | active
COc1ccc(/N=C2\C(=O)Nc3ccc(Br)cc32)cc1 | inactive
COc1cc(/C=C2\CCC(C)c3c2nc(N)c(C#N)c3-c2cc(OC)c(OC)c(OC)c2)cc(OC)c1OC (stereo unspecified) | inactive
COC(=O)c1cc(C)n(CN(Cn2nc(C(=O)OC)cc2C)c2ccccc2)n1 | inactive
CCOC(=O)c1ccc(N[C@@H]2c3cc4c(cc3C(c3cc(OC)c(O)c(OC)c3)[C@H]3C(=O)OCC32)OCO4)cc1O (stereo partly specified) | inactive
CC1=CCP(C(F)(F)F)P(C(F)(F)F)C1 (stereo unspecified) | inactive
O=C(c1ccccc1)C1C(C(=O)c2ccccc2)C(c2ccccc2)N(c2ccccc2)C1c1ccccc1 (stereo unspecified) | inactive
O=C1/C(=C/c2ccccc2O)N=C(c2ccccc2)N1c1nc2ccccc2s1 | inactive
COC(=O)[C@@H]1Cc2c([nH]c3ccccc23)[C@H](c2ccccc2)N1 | inactive
CCCCCCCCC[n+]1cccc(C2C(C(=O)OCC)=C(C)NC(C)=C2C(=O)OCC)c1 | inactive
COC(=O)/C=C(\C(=O)OC)c1cc(C)c2cc(C(C)C)ccc(C)c1-2 | inactive
COc1cccc2c1C(=O)c1c(O)c3c(c(O)c1C2=O)C[C@@](O)(/C(C)=N/NC(=O)c1ccccc1)C[C@@H]3OC1CC(N)C(O)C(C)O1 (stereo partly specified) | active
